- system: human glycolate oxidase (hGO) (Homo sapiens, UniProt Q9UJM8)
- Construct: His-tag (6 histidines, pET-15b) (N); made in house; host or cells: E. coli BL21 (DE3)
- Sequence (Q9UJM8 whole entry): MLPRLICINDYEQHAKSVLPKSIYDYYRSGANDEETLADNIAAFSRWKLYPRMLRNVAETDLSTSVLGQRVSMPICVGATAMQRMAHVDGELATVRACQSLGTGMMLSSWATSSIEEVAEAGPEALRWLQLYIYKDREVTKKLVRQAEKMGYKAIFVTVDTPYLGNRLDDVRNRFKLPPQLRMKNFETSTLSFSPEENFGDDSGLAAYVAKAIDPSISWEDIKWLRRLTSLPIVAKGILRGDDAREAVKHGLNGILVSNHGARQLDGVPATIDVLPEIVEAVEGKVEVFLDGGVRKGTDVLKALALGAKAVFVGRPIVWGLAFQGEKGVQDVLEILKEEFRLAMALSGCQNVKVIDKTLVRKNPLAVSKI
- assay.protocol: In vitro inhibition of human glycolate oxidase (enzymatic assay, HRP-coupled Trinder reaction);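 further: values are IC50 potency bins despite the % Inhibition label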
- Assay type: biochemical
- condition.set: recombinant hGO, 40 mM glycolic acid, pH 7, read at 515 nm, 1 minute after initiation of Trinder reaction; read-out: % Inhibition
pIC50: −log10 of the molar value.
Provide the reported pIC50 of each item.

Example entries begin here.
O=C(O)c1nn[nH]c1Oc1ccc(Br)cc1F :: > 7.00
O=C(O)c1nn[nH]c1Sc1ccc(-c2cccnc2F)cc1 :: 6.70 to 7.00
COc1ccc(-c2ccc(Oc3[nH]nnc3C(=O)O)cc2)c(OC)n1 :: > 7.00

// batch mode: one pIC50 value per listed entry
1. Cc1nc(F)ccc1-c1ccc(Oc2[nH]nnc2C(=O)O)cc1
2. O=C(O)c1nn[nH]c1Oc1ccc(-c2cccnc2F)cc1F

Result:
1: > 7.00; 2: > 7.00
